# Tested target: UniProtKB Q9KQG2
# Sequence (Q9KQG2 1-370): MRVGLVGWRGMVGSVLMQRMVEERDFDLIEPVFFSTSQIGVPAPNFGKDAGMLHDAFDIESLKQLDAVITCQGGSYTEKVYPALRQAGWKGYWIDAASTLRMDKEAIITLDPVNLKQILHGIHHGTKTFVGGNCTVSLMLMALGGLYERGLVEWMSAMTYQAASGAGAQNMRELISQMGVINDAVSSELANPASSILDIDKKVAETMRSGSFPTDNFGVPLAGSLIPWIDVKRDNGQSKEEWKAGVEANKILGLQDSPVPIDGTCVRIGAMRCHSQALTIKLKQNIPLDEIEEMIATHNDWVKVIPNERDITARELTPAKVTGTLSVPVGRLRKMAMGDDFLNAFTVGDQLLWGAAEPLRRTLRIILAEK
Quantity measured: Ki

>>> experimental_value("COC(=O)c1ccc([N+](=O)[O-])cn1 [Compound M6m, 5-Nitropyridine-2-methylcarboxylate]")
"> 20 mM"
>>> experimental_value("Cn1c(=O)n(C)c2cc([N+](=O)[O-])ccc21 [Compound M14m, 4-Nitro-N,N-dimethylbenzimidazolinone]")
"0.13 mM"
>>> experimental_value("COC(=O)c1cc(C(=O)Nc2ccc([N+](=O)[O-])cc2)cc(C(=O)OC)c1 [Compound M17m]")
"> 20 mM"
>>> experimental_value("CCN1C(=O)c2ccc([N+](=O)[O-])cc2C1=O [Compound M11e, 4-Nitro-N-ethylphthalimide]")
"> 4 mM"

Query block: Please give measured Ki of the following entry: COC(=O)c1ccc(C(=O)OC)nc1 [Compound M7m, Pyridine-2,5-dimethylcarboxylate]
Result block: > 20 mM
